System: FB
Assay overview: Euclidean distance of Cell Painting phenotypic profile (signed KS, 77 features) to DMSO centroid (dimensionless distance); 5 or 10 uM (library dependent); higher = stronger phenotypic change vs DMSO (phenoactivity)
Applied conditions: 48 h
Structures can show the parent of a compound that is named as a salt.
Value type: Euclidean distance

{"columns": ["Molecule", "Value type", "Endpoint value"],
 "data": [
  ["CCN(CC)CCOC(=O)C(c1ccccc1)c1ccccc1 [Adiphenine HCl]", "Euclidean distance", 1.43],
  ["CC[C@@H]([C@H](C)O)n1ncn(-c2ccc(N3CCN(c4ccc(OC[C@@H]5CO[C@@](Cn6cncn6)(c6ccc(F)cc6F)C5)cc4)CC3)cc2)c1=O", "Euclidean distance", 2.3],
  ["COc1cc2c(cc1OC)[C@@H]1Cc3ccc(OC)c(OC)c3CN1CC2 [Rotundine]", "Euclidean distance", 1.26],
  ["NC(=O)[C@@H](CCC(F)(F)F)N(Cc1ccc(-c2ncon2)cc1F)S(=O)(=O)c1ccc(Cl)cc1", "Euclidean distance", 2.28],
  ["C[C@H]1C[C@@H]2[C@H]([C@@H](O)C[C@@]3(C)[C@H]2CC[C@]3(O)C(=O)CO)[C@@]2(C)C=CC(=O)C=C12", "Euclidean distance", 1.79],
  ["CS(=O)(=O)CCC#N", "Euclidean distance", 0.633],
  ["CCc1ccc(CCOc2ccc(CC3SC(=O)NC3=O)cc2)nc1 (centres undefined)", "Euclidean distance", 0.666],
  ["C[C@]12CCC(=O)C=C1CC[C@@H]1[C@@H]2[C@@H](O)C[C@@]2(C)[C@H]1CC[C@]2(O)C(=O)CO [Hydrocortisone]", "Euclidean distance", 1.56],
  ["CC(=C(CCOC(=O)C(C)C)SSC(CCOC(=O)C(C)C)=C(C)N(C=O)Cc1cnc(C)nc1N)N(C=O)Cc1cnc(C)nc1N (stereo in doubt)", "Euclidean distance", 1.12],
  ["Cc1c(C)c2c(c(C)c1O)CC[C@@](C)(CCC[C@H](C)CCC[C@H](C)CCCC(C)C)O2", "Euclidean distance", 0.892],
  ["Cc1cc(C)nc(NS(=O)(=O)c2ccc(N)cc2)n1 [Sulfamethazine Sodium Salt]", "Euclidean distance", 0.878],
  ["CCC(=O)O[C@@H]1CC(=O)O[C@H](C)C/C=C/C=C/[C@H](O)[C@H](C)C[C@H](CC=O)[C@H](O[C@@H]2O[C@H](C)[C@@H](O[C@H]3C[C@@](C)(O)[C@@H](OC(=O)CC)[C@H](C)O3)[C@H](N(C)C)[C@H]2O)[C@H]1OC", "Euclidean distance", 1.31],
  ["C=CCn1c(=O)c2cnc(Nc3ccc(N4CCN(C)CC4)cc3)nc2n1-c1cccc(C(C)(C)O)n1", "Euclidean distance", 3.63],
  ["CCc1cc2c(cc1N1CCC(N3CCOCC3)CC1)C(C)(C)c1[nH]c3cc(C#N)ccc3c1C2=O", "Euclidean distance", 1.15]
]}

---

Test system: OVCAR4
Assay overview: Euclidean distance of Cell Painting phenotypic profile (signed KS, 77 features) to DMSO centroid (dimensionless distance); 5 or 10 uM (library dependent); higher = stronger phenotypic change vs DMSO (phenoactivity)
Applied conditions: 48 h
As shown below, each of these molecules has a reported Euclidean distance value.
Value type: Euclidean distance

{"columns": ["Molecule", "Endpoint value"],
 "data": [
  ["CCCCN(Cc1ccc(C(=O)NO)cc1)C(=O)Nc1ccccc1 [Nexturastat A]", 2.05],
  ["O=C(Nc1cccc2c(=O)cc(-c3nnn[nH]3)oc12)c1ccc(OCCCCc2ccccc2)cc1 [Pranlukast]", 0.86],
  ["O=C1Nc2ccc(I)cc2/C1=C/c1cc(Br)c(O)c(Br)c1", 1.3],
  ["N#Cc1ccnc(N2C(=O)CC[C@H]2C(=O)N(c2cncc(F)c2)[C@H](C(=O)NC2CC(F)(F)C2)c2ccccc2Cl)c1 [Ivosidenib (AG-120)]", 1.55]
]}

---

Test system: A549
Assay overview: Euclidean distance of Cell Painting phenotypic profile (signed KS, 77 features) to DMSO centroid (dimensionless distance); 5 or 10 uM (library dependent); higher = stronger phenotypic change vs DMSO (phenoactivity)
Applied conditions: 48 h
Structures can show the parent of a compound that is named as a salt.

{"columns": ["Molecule", "Target of assay", "Euclidean distance"],
 "data": [
  ["N#CCCCSC(=N)N [Kevetrin hydrochloride]", "A549", 0.842],
  ["COC(=O)c1ccccc1O [Methyl salicylate]", "A549", 0.514],
  ["CN1CCN(c2ccc3nc(-c4c(N)c5c(F)cccc5[nH]c4=O)[nH]c3c2)CC1", "A549", 3.4],
  ["CN1CCN(c2c(F)cc3c(=O)c(C(=O)O)cn4c3c2OCN4C)CC1", "A549", 0.762],
  ["CCN(CC)CCNC(=O)c1c(C)[nH]c(/C=C2\\C(=O)Nc3ccc(-c4csc(-c5ccccc5)n4)cc32)c1C", "A549", 5.2],
  ["CC(=O)OCC(=O)[C@@]12OC(C)(C)O[C@@H]1C[C@H]1[C@@H]3C[C@H](F)C4=CC(=O)C=C[C@]4(C)[C@@]3(F)[C@@H](O)C[C@@]12C [Fluocinonide]", "A549", 2.13],
  ["O=C1CCC(N2C(=O)c3ccccc3C2=O)C(=O)N1 (stereo not drawn) [Thalidomide]", "A549", 0.846],
  ["C/C(=C\\C(=O)Nc1ccccc1C(=O)O)c1ccc2ccccc2c1", "A549", 1.46]
]}

---

System: 786-O
Assay overview: Euclidean distance of Cell Painting phenotypic profile (signed KS, 77 features) to DMSO centroid (dimensionless distance); 5 or 10 uM (library dependent); higher = stronger phenotypic change vs DMSO (phenoactivity)
Applied conditions: 48 h
Counter-ions that a name gives are not always drawn.
As shown below, each of these compounds has a reported Euclidean distance value.
Value type: Euclidean distance

{"columns": ["Compound", "Target of assay", "Endpoint value"],
 "data": [
  ["COc1cccc(CCc2ccccc2OCC(CN(C)C)OC(=O)CCC(=O)O)c1 (stereo unspecified) [Sarpogrelate hydrochloride]", "786-O", 0.73],
  ["CN(C)CC(=O)Nc1ccc2[nH]c(=O)c3ccccc3c2c1", "786-O", 1.25],
  ["CN1CC2c3ccccc3Oc3ccc(Cl)cc3C2C1 (stereo unspecified) [Asenapine maleate]", "786-O", 1.69],
  ["O=C(Nc1ncc([N+](=O)[O-])s1)c1ccccc1O [Tizoxanide]", "786-O", 2.03],
  ["CCCOc1ccc2c(c1)CC[C@@H]1[C@@H]2CC[C@]2(C)[C@@H](OC)CC[C@@H]12", "786-O", 1.13],
  ["N=C1CCCN1Cc1[nH]c(=O)[nH]c(=O)c1Cl [Tipiracil hydrochloride]", "786-O", 1.02],
  ["COc1cc(C(=O)NS(=O)(=O)c2ccccc2C)ccc1Cc1cn(C)c2ccc(NC(=O)OC3CCCC3)cc12", "786-O", 0.974],
  ["C#C[C@]1(O)CC[C@H]2[C@@H]3CCC4=CC(=O)CC[C@@H]4[C@H]3CC[C@@]21CC", "786-O", 1.01],
  ["O=C(O)c1ccccc1Nc1cccc(C(F)(F)F)c1", "786-O", 1.11],
  ["O=C(N/N=C/c1ccc([N+](=O)[O-])o1)c1ccc(O)cc1 [Nifuroxazide]", "786-O", 1.64],
  ["C=CC[N+]1([C@H]2C[C@H]3[C@@H]4CC[C@H]5C[C@H](O)[C@@H](N6CCOCC6)C[C@]5(C)[C@H]4CC[C@]3(C)[C@H]2OC(C)=O)CCCC1 [Rocuronium Bromide]", "786-O", 1.59],
  ["CC(C)[C@H](O)C(=O)N[C@@H](C)C(=O)N[C@@H]1C(=O)N(C)CCc2ccccc21", "786-O", 1.12],
  ["NCCCCC(NC(=O)C1CCCN1C(=O)C1CSSCC(N)C(=O)NC(Cc2ccc(O)cc2)C(=O)NC(Cc2ccccc2)C(=O)NC(CCC(N)=O)C(=O)NC(CC(N)=O)C(=O)N1)C(=O)NCC(N)=O (stereo unspecified) [Lypressin Acetate]", "786-O", 1.39],
  ["C[C@@]1(c2cc(-c3cncnc3)c(F)cc2F)CCSC(N)=N1", "786-O", 2.11],
  ["CNC(=O)[C@H](Cc1c[nH]c2ccccc12)NC(=O)[C@@H](CC(=O)NO)CC(C)C", "786-O", 1.02],
  ["O=C(/C=C/c1ccc(O)cc1)c1ccc(O)cc1O", "786-O", 0.936]
]}

---

As shown below, each of these compounds has a reported Euclidean distance value.
System: OVCAR4
Assay overview: Euclidean distance of Cell Painting phenotypic profile (signed KS, 77 features) to DMSO centroid (dimensionless distance); 5 or 10 uM (library dependent); higher = stronger phenotypic change vs DMSO (phenoactivity)
Applied conditions: 48 h
Counter-ions that a name gives are not always drawn.
Value type: Euclidean distance

{"columns": ["Compound", "Value type", "Endpoint value"],
 "data": [
  ["c1cncc(CN2CCC(n3ncc4c(N5CCOCC5)nc(-c5ccc6[nH]ccc6c5)nc43)CC2)c1", "Euclidean distance", 3.57],
  ["CCOC(=O)[C@H](CCc1ccccc1)N[C@@H](C)C(=O)N1[C@H](C(=O)O)C[C@H]2CCCC[C@@H]21", "Euclidean distance", 0.99],
  ["C[C@H](CS)C(=O)N1CCC[C@H]1C(=O)O", "Euclidean distance", 0.714],
  ["COc1ccc2c(O[C@@H]3C[C@H]4C(=O)N[C@]5(C(=O)NS(=O)(=O)C6CC6)C[C@H]5/C=C\\CCCCN(C)C(=O)[C@@H]4C3)cc(-c3nc(C(C)C)cs3)nc2c1C", "Euclidean distance", 1.23],
  ["COc1nc(C)cnc1NS(=O)(=O)c1cccnc1-c1ccc(-c2nnco2)cc1 [Zibotentan (ZD4054)]", "Euclidean distance", 0.898],
  ["C/C(=C\\C(=O)Nc1ccccc1C(=O)O)c1ccc2ccccc2c1", "Euclidean distance", 0.731],
  ["CCCCC1OC(=O)c2ccccc21 (centres undefined) [3-n-Butylphathlide]", "Euclidean distance", 1.15],
  ["CCN(CC)C(=O)Nc1ccc(OCC(O)CNC(C)(C)C)c(C(C)=O)c1 (centres undefined) [Celiprolol hydrochloride]", "Euclidean distance", 1.24],
  ["Cc1cc(Nc2cc(CN3CCOCC3)c3nc(C)c(Cc4ccc(Cl)cc4F)n3n2)n[nH]1", "Euclidean distance", 3.19]
]}
